tested on: KM12 colon; test: NCI tumour cell line growth inhibition, 48 h; in the data active = GI50 below about 0.43 µM; inactive = the rest
Log the outcome using a class from 1.0 (active), 0.0 (inactive)

O=C1CS/C(=N/S(=O)(=O)c2ccc(N3N=C4c5ccccc5CC4C3c3cccs3)cc2)N(c2ccccc2)C1 (centres undefined) :: 0.0
CCCCCCCCCCCCCCNc1nc(C(=O)OCC)ncc1-c1ccc(C(F)(F)F)cc1 :: 0.0
N#Cc1c(-c2ccc(Cl)cc2)cc(-c2cc(O)ccc2O)nc1N :: 0.0
O=C(CC1(O)C(=O)N(Cc2ccccc2)c2ccc(Br)cc21)c1ccc(C(=O)NCC2CCC3(CC2)OOC2(CCCCC2)OO3)cc1 (centres undefined) :: 0.0
O=C(Nc1ccc(-n2ccc3c(NC(=O)c4ccccc4)nccc32)cc1)c1cccc(C(F)(F)F)c1 :: 1.0

(Q) Recorded test outcome, item `COc1cc2c3c(n(CCCNCCCNCCCn4c5c(c6cc(OC)c(OC)cc6c4=O)C(=O)c4ccccc4-5)c(=O)c2cc1OC)-c1ccccc1C3=O`
(A) 0.0

(Q) Recorded test outcome, item `CCCCCCC/C(=N\N=C(N)N)c1ccc(O)cc1`
(A) 0.0

(Q) Recorded test outcome, item `N#CCCN1C/C(=C/c2ccccc2)C(=O)/C(=C/c2ccccc2)C1`
(A) 0.0

(Q) Recorded test outcome, item `COc1ccc(C(=O)NCCNc2nccc(-c3c(-c4ccc(F)cc4)nc4sccn34)n2)cc1`
(A) 0.0

====

tested on: DLD-1 colon; assay: NCI tumour cell line growth inhibition, 48 h
measured parameter: TGI

Answered cases to consult:
C[C@H](NS(=O)(=O)c1ccc(NC(=O)c2ccccc2)cc1)C(=O)O :: > 100 µM
CC1(C)CC2(S(=O)(=O)c3ccccc3)ON1CC2S(=O)(=O)c1ccccc1 (configuration not stated) :: > 100 µM
CC(=O)NC1C(O)CC(OCCCSCCN)(C(=O)O)OC1C(O)C(O)CO (configuration not stated) :: > 100 µM

The reported DLD-1 colon TGI of `CCOC(=O)C(=O)Nc1cccc(Cl)c1C` is > 100 µM

The reported DLD-1 colon TGI of `O=C1C=Cc2c(-c3ccccc3)oc3cccc1c23` is > 100 µM

====

Below: a set of entries, each annotated with reported TGI.
tested on: A549 NSCLC; assay: NCI tumour cell line growth inhibition, 48 h

COc1cc2c(c(OC)c1)C(C)=NC(C)C2 (configuration not stated) :: > 100 µM
O=C(/C=C/c1ccccc1O)C(c1ccccc1)c1ccccc1 :: > 100 µM
COC1OC(C)C(OC(=O)C(C)(C)C)C(OS(=O)(=O)c2ccc(C)cc2)C1OS(=O)(=O)c1ccc(C)cc1 (configuration not stated) :: > 100 µM
O=P(Nc1ccccc1)(Oc1ccccc1)N1CCN(c2ccccc2)CC1 (configuration not stated) :: 38.5 µM
COc1nc(C(=O)O)c(Cl)c(OC)c1Cl :: > 100 µM

get_value(item= `O=C(O)[C@@H]1CCCN1Cc1cc2cc3c(cc2c2cc(OCc4ccccc4)ccc12)OCO3` , readout=TGI) returns > 100 µM

get_value(item= CCCCCCC(C)c1ccc2c(c1)C(=O)c1nc3ccncc3c(=O)n1-2 (configuration not stated) , readout=TGI) returns 35.2 µM

get_value(item= `CC1=C2[C@H]3OC(=O)[C@@H](C)[C@@H]3CC[C@@]2(C)C=CC1=O` , readout=TGI) returns > 100 µM

get_value(item= `Cc1ccc(-n2c(C)n[nH]c2=O)cc1` , readout=TGI) returns > 100 µM

get_value(item= `CCOC(=O)C(C)(C)Oc1ccc(Cl)cc1` , readout=TGI) returns > 1000 µM

====

Below: a set of entries, each annotated with reported TGI.
tested on: MDA-MB-231 breast; test: NCI tumour cell line growth inhibition, 48 h
Write the answer as a number in µM, unit excluded.

Answered cases to consult:
O=C(Nc1ccc(-n2ccc3c(NC(=O)c4ccccc4)nccc32)cc1)c1cccc(C(F)(F)F)c1 :: 14.7
Cn1ccnc1C(=O)/C=C/c1ccc(C(=O)Nc2ccccc2F)cc1 :: 10.5
C[N+](C)(C)CC1CCc2ccccc2C1=O (centres undefined) :: 15.8
Cc1cc2c(C(C)C)c(O)c(O)c(C=NCC3CCCN4CCCCC34)c2cc1-c1cc2c(C=NCC3CCCN4CCCCC34)c(O)c(O)c(C(C)C)c2cc1C (centres undefined) :: 14.7
COc1cc(/C=C2\CCC(C)C3=C(c4cc(OC)c(OC)c(OC)c4)C(C#N)=C(N)OC32)cc(OC)c1OC (centres undefined) :: 10.9

Now turn to the next compound.
get_value(item= `O=C(c1c(Cl)cc(Cl)cc1Cl)N(Cc1cccnc1)C(=S)N(Cc1cccnc1)C(=O)c1c(Cl)cc(Cl)cc1Cl` , readout=TGI) returns 40.9

====

system: T-47D breast; experiment: NCI tumour cell line growth inhibition, 48 h; in the data active = GI50 below about 0.43 µM; inactive = the rest
Log the outcome using a class from class 1 = active, class 0 = inactive

Solved cases (10 shown):
Cn1ccnc1C(=O)/C=C/c1ccc(C(=O)Nc2ccccc2F)cc1 :: class 0
O=c1c2sc3ccccc3c2nnn1-c1ccc(F)c(Cl)c1 :: class 0
O=c1cc(N2CCOCC2)oc2c(-c3ccc4c(c3)OCCO4)csc12 :: class 1
COc1ccc(C(=O)/C=C/c2ccc(OCc3ccc(Cl)cc3)cc2)cc1OC :: class 0
O=c1c2c3c(sc2n2c(CCl)nnc2n1Cc1ccccc1)CCCC3 :: class 0
COc1ccc(NC(=O)c2sc3nc(C)c(C(=O)/C=C/c4ccccc4)cc3c2N)cc1 :: class 0
CCC(=O)Oc1cc(/C=C/C(=O)O[C@H]2C[C@H]3CN4CCc5c([nH]c6cc(OC)ccc56)[C@@H]4C[C@@H]3[C@@H](C(=O)OC)[C@@H]2OC)ccc1OC :: class 0
O=C(Nc1ccc(-n2ccc3c(NC(=O)c4ccccc4)nccc32)cc1)c1cccc(C(F)(F)F)c1 :: class 0
CCCCCC/C=C\CCCCCCCCCc1cc(O)cc(OC)c1O :: class 1
O=[N+]([O-])[O][Sn]([O][Sn]([O][N+](=O)[O-])([c]1ccccc1)[c]1ccccc1)([c]1ccccc1)[c]1ccccc1 :: class 0

(Q) Recorded test outcome, item `COc1cc2c3c(n(CCCN(C)C)c(=O)c2cc1OC)-c1cc2c(cc1C3=O)OCO2`
(A) class 0

====

tested on: OVCAR-8 ovarian; assay: NCI tumour cell line growth inhibition, 48 h
Below: a set of entries, each annotated with reported TGI.
Write the answer as a number in µM, unit excluded.

c1ccc2c(c1)Sc1ccccc1N2CC1CN2CCC1CC2 (stereo not given) :: 27.2

get_value(item= `O=C(CCl)Nc1ccc2c(Nc3cc(O)ccc3Cl)ncnc2c1` , readout=TGI) returns 10.1

====

tested on: HOP-92 NSCLC; experiment: NCI tumour cell line growth inhibition, 48 h; in the data active means GI50 below about 0.43 µM; inactive means the rest
Log the outcome using a class from active, inactive

O=C(O)c1cc2cc(OCc3ccccc3)ccc2[nH]1 :: inactive
N#Cc1ccccc1C#C/C=C\C#Cc1cccs1 :: inactive
COC(=O)N1c2ccc3c(nc(Cc4ccccc4)n3[C@H]3CCC[C@H](C(=O)O)C3)c2CC[C@@H]1C :: inactive

(Q) Recorded test outcome, item `N#CCCN1C/C(=C/c2ccccc2)C(=O)/C(=C/c2ccccc2)C1`
(A) inactive

(Q) Recorded test outcome, item `N#Cc1c(-c2ccc(Cl)cc2)cc(-c2cc(O)ccc2O)nc1N`
(A) inactive

====

test system: HCT-116 colon; experiment: NCI tumour cell line growth inhibition, 48 h
measured parameter: TGI (µM)
Write the answer as a number in µM, unit excluded.

Answered cases to consult:
CC(C)(C)c1ccc(-n2c3nc(=O)n(-c4ccccc4C(F)(F)F)c(=O)c-3cc3ccccc32)cc1 :: 25.1
O=C1N=C(c2c(-c3[nH]c(=O)c4ccc(Br)cc4c3O)c(O)c3ccccc3c2O)C(=O)c2cc(Br)ccc21 :: 1
CC(C)(C)C1CCC2c3c([nH]c4ccccc34)C3C(=O)N(c4ccc(C(=O)O)cc4)C(=O)C3C2C1 (stereo not given) :: 29.7

Now turn to the next compound.
The reported HCT-116 colon TGI of `O=c1[nH]c2ccccc2nc1CBr` is 21.3

====

test system: SK-MEL-2 melanoma; experiment: NCI tumour cell line growth inhibition, 48 h
Below: a set of entries, each annotated with reported TGI.

The reported SK-MEL-2 melanoma TGI of CC(C)(C)OC(=O)CCC1NC(=O)[C@@H]2Cc3c([nH]c4ccccc34)C(C3CCCCC3)N2C1=O (stereo partly specified) is 65.5 µM

The reported SK-MEL-2 melanoma TGI of `CCOC(=O)[C@@]12C(C)=CC(=O)O[C@]1(C)C[C@H]2C#N` is > 100 µM

The reported SK-MEL-2 melanoma TGI of C=CCNC(=O)NNC(O)(C(=O)OCC)C(F)(F)F (stereo unspecified) is > 100 µM

The reported SK-MEL-2 melanoma TGI of COc1ccc(COC(=O)NNC(=O)C2CSC(c3ccccc3)N2C(C)=O)cc1 (stereo unspecified) is > 100 µM

The reported SK-MEL-2 melanoma TGI of O=c1[nH]cnc2c1cnn2Cc1cn(COCC(O)CO)nn1 (stereo unspecified) is > 100 µM

The reported SK-MEL-2 melanoma TGI of CCOC(OC1=CCCC1)C(C)[Se]c1ccccc1 (stereo unspecified) is > 100 µM
